- assay.explanation: Short-term storage stability of emulsions (drug conc., pH, particle size)
- Type: physicochemical
- setup.conditions: emulsion; TRIS 5 mM; 5° C.; 4 weeks
quantity.kind: D(4, 3) (µm)
Your answer is read as µm, so omit the unit and give the number.

query: // query D(4, 3) value for entry C[C@@H](NCCCc1cccc(C(F)(F)F)c1)c1cccc2ccccc12 [Cinacalcet]
result: 0.3

====

- assay.explanation: Short-term storage stability of emulsions (drug conc., pH, particle size)
- Assay type: physicochemical
- setup.conditions: emulsion; TRIS 20 mM; 40° C.; 4 weeks
quantity.kind: D(4, 3) (µm)
Your answer is read as µm, so omit the unit and give the number.

query: // query D(4, 3) value for entry C[C@@H](NCCCc1cccc(C(F)(F)F)c1)c1cccc2ccccc12 [Cinacalcet]
result: 0.29

====

- assay.explanation: Solubility of calcimimetics in oil phases (RP-HPLC)
- Format: physicochemical
- setup.conditions: Medium Chain Triglycerides (oil phase) with soy lecithin, oil or lipid, thermodynamic from solid; Medium Chain Triglycerides; Soy lecithin
quantity.kind: solubility at 18 h

query: // query solubility at 18 h value for entry `C[C@@H](NCCCc1cccc(C(F)(F)F)c1)c1cccc2ccccc12`
result: > 327 mg/mL

====

- assay.explanation: Short-term storage stability of emulsions (drug conc., pH, particle size)
- Assay type: physicochemical
- setup.conditions: emulsion; TRIS 20 mM; 40° C.; 6 weeks
quantity.kind: D(4, 3) (µm)
Your answer is read as µm, so omit the unit and give the number.

query: // query D(4, 3) value for entry C[C@@H](NCCCc1cccc(C(F)(F)F)c1)c1cccc2ccccc12 [Cinacalcet]
result: 0.29

====

- assay.explanation: pH and particle size of crude cinacalcet emulsions with different oils and phospholipids
- Type: physicochemical
- setup.conditions: crude emulsion; MCT 20%; % Purified Soy Lecithin
quantity.kind: D(4, 3)
Respond with a number, then the unit of measure.

query: // query D(4, 3) value for entry `C[C@@H](NCCCc1cccc(C(F)(F)F)c1)c1cccc2ccccc12`
result: 0.31 µm

====

- assay.explanation: Short-term storage stability of emulsions (drug conc., pH, particle size)
- Format: physicochemical
- setup.conditions: emulsion; TRIS 5 mM; 40° C.; 8 weeks
quantity.kind: D(4, 3) (µm)
Your answer is read as µm, so omit the unit and give the number.

query: // query D(4, 3) value for entry `C[C@@H](NCCCc1cccc(C(F)(F)F)c1)c1cccc2ccccc12`
result: 0.48

====

- assay.explanation: Short-term storage stability of emulsions (drug conc., pH, particle size)
- Type: physicochemical
- setup.conditions: emulsion; TRIS 20 mM; 5° C.; 6 weeks
quantity.kind: D(4, 3) (µm)
Your answer is read as µm, so omit the unit and give the number.

query: // query D(4, 3) value for entry C[C@@H](NCCCc1cccc(C(F)(F)F)c1)c1cccc2ccccc12 [Cinacalcet]
result: 0.28

====

- assay.explanation: pH and particle size of crude cinacalcet emulsions with different oils and phospholipids
- Format: physicochemical
- setup.conditions: crude emulsion; STG 5%; 1% Purified Egg Lecithin
quantity.kind: D(4, 3) (µm)
Your answer is read as µm, so omit the unit and give the number.

query: // query D(4, 3) value for entry C[C@@H](NCCCc1cccc(C(F)(F)F)c1)c1cccc2ccccc12 [Cinacalcet]
result: 0.72

====

- assay.explanation: Short-term storage stability of emulsions (drug conc., pH, particle size)
- Type: physicochemical
- setup.conditions: emulsion; TRIS 20 mM; 5° C.; 8 weeks
quantity.kind: D(4, 3)
Respond with a number, then the unit of measure.

query: // query D(4, 3) value for entry `C[C@@H](NCCCc1cccc(C(F)(F)F)c1)c1cccc2ccccc12`
result: 0.29 µm
